- test.target: HCV NS5B polymerase (RdRp) (Hepatitis C virus genotype 1b, UniProt Q9WMX2)
- Construct: HCV NS5B polymerase (RdRp) assay
- Sequence (Q9WMX2 2420-3010): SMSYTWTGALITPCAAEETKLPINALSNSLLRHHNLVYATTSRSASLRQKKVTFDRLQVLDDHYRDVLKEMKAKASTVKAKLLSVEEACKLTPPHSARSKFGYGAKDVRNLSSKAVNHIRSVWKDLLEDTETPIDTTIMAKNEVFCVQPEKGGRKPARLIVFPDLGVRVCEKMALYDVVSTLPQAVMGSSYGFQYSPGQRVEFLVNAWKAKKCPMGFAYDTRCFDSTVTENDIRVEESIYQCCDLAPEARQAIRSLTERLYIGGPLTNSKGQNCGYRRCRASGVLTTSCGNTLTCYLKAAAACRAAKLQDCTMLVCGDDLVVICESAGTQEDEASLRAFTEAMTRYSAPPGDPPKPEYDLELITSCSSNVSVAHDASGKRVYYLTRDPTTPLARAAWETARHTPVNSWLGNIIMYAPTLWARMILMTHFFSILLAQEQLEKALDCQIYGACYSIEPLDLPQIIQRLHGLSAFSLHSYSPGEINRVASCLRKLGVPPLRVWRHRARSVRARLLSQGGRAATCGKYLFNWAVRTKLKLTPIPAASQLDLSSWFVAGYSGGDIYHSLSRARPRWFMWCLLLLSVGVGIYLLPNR
- experimental.details: HCV NS5B polymerase (RdRp) assay
- Type: biochemical
- test.context: as an alternate substrate for GTP; mean of two assays
- Description: RdRp activity was determined by the incorporation of radiolabeled ribonucleotide into synthesized RNA. […] HCV796 (Southern Research, Frederick, MD) was used as positive control for the assay.
reported.endpoint: IC50

If you can, please state the reported IC50 value of "C[C@@]1(F)[C@H](O)[C@@H](COP(=O)(O)OP(=O)(O)OP(=O)(O)O)O[C@H]1n1cnc2c(=O)[nH]c(N)nc21" .
150 nM
